The measurements presented in this section are drawn from paper PMC12518634.

Test system: 783C-6
Method: High-throughput drug screen, CellTiter-Glo viability, 72 h
Assay type: cell-based, human
Condition summary: 783C-6 cells, slope of fitted dose-response curve
SLOPE by entry:
Reported property: SLOPE

- Molecule: "O=C1NC(=O)/C(=C/c2cccc(C(F)(F)F)c2)S1"
  Reported measurement: -2.5
- Molecule: "CCOC(=O)NCCCC(=O)NCCc1ccccc1 [Santacruzamate A]"
  Reported measurement: -0.7
- Molecule: "Cl.Cn1cc(C(=O)Nc2ccc([C@@H]3C[C@H]3NCC3CC3)cc2)cn1 [T-3775440 HCl]"
  Reported measurement: -0.1
- Molecule: "O=C(O)C(=O)O.[NH-][C@@H]1CCCC[C@H]1[NH-].[Pt+2]"
  Reported measurement: -1.1
